# Tested on: SF-295 CNS
# Experiment description: NCI tumour cell line growth inhibition, 48 h; in the data active = GI50 below about 0.43 µM; inactive = the rest
Outcomes: T (active), F (inactive)

O=C(Nc1cccc2ccccc12)c1cc2ccccc2cc1O = F
COc1ccc2c(c1)CC[C@@H]1[C@@H]2CC[C@]2(C)c3c(cc(C(=O)c4ccccc4)c4sccc34)C[C@@H]12 = F
CC(=O)/C=C/c1ccc(N(C)Cc2ccc(C(C)(C)C)cc2)cc1 = F
C#CCOc1c(OC)cc(C(=O)/C(C)=C/c2cccc(N=[N+]=[N-])c2)cc1OC = T
CCN(CC)CCCC(C)Nc1ccnc2cc(Cl)c(SCc3ccccc3)cc12 (stereo not given) = F

###

# System: EKVX NSCLC
# Experiment description: NCI tumour cell line growth inhibition, 48 h; in the data active means GI50 below about 0.43 µM; inactive means the rest
Possible outcomes: true (1) (active), false (0) (inactive)

CCCNNC(=O)c1ccc(CNC(=O)/C=C/c2ccccc2)cc1 = true (1)
OCCCNC(=S)Nc1ccc(-c2nc3ccccc3s2)cc1 = false (0)
Cc1ccc(S(=O)(=O)C2=C3C(=C(c4ccccc4)c4ccccc43)CN(S(=O)(=O)c3ccc(C)cc3)C2)cc1 = false (0)
COC(=O)C12OCC34C(CC5C(C)=CC(=O)C(O)C5(C)C3C(O)C1O)OC(=O)C(OC(=O)CC(C)C)C24 (centres undefined) = true (1)

###

# Test system: SF-268 CNS
# Experiment description: NCI tumour cell line growth inhibition, 48 h
Measured property: TGI

O=[N+]([O-])c1ccc(C2N3CCCCC3[C@@H]3c4[nH]c5ccccc5c4CCN23)cc1 (some centres not stated) = 43 µM
CN(C)C(=S)SCc1ccccc1 = > 100 µM
CCNC(=O)Cc1nc2c(=O)[nH]cnc2n1C1OC(CO)C(O)C1O (configuration not stated) = > 100 µM
C/C(CN1C(=O)c2ccccc2C1=O)=N\NS(C)(=O)=O = > 100 µM
Nc1nn(C(=O)Nc2ccc(Cc3ccccc3)cc2)c2ccccc12 = 32.3 µM
CC1(C)OC([C@H](O)CO)C([C@H]2NCCS2)O1 (some centres not stated) = > 100 µM
COc1ccc(N=C2C(=Nc3ccc(OC)cc3)N(c3ccccc3[N+](=O)[O-])C(=S)N2c2ccc(OC)cc2)cc1 = > 100 µM
COc1ccc2cc(C(=O)/C=C/c3ccccc3OC)ccc2c1 = > 100 µM
N=C(N)c1ccc(-c2ccc(-c3ccc(C(=N)N)cc3)o2)cc1 = > 100 µM
CC1=NN(c2ccccc2)C(=O)C1C(=O)C(=O)Nc1ccc(C)cc1C (configuration not stated) = > 100 µM
O=C(NC1CCN(Cc2ccccc2)CC1)c1ccccc1I = > 100 µM
Cc1ccc(C(=O)Nc2ccc(CP(=O)(O)O)cc2)cc1NC(=O)Nc1cc(C(=O)Nc2ccc(CP(=O)(O)O)cc2)ccc1C = > 100 µM
COC1(C)Cc2c(c(C)c(O)c3c2C(=O)C=C(Cl)C3=O)O1 (configuration not stated) = > 100 µM
O=CNc1ccc2c(c1)Cc1cc([N+](=O)[O-])ccc1-2 = > 100 µM
C/C(=C\c1ccc2c(c1)OCO2)[N+](=O)[O-] = 10.7 µM
C(#Cc1ccccc1C#Cc1ccccn1)c1ccc(OCCCCCCOc2ccc(C#Cc3ccccc3C#Cc3ccccn3)cc2)cc1 = 10.8 µM
N=c1c2ccccc2nc2oc3ccc(Cl)cc3n12 = > 100 µM
Clc1ccc(N=Cc2cc3cc(Br)ccc3nc2Cl)cc1 = > 50 µM
C#Cc1ccc(-n2c(/C=C/c3ccc4ccccc4n3)nc3ncccc3c2=O)cc1 = 2.33 µM
CCOC(=O)c1cc(Cl)ccc1OC(N)=O = > 100 µM
Nc1nc(Cl)cc(NCC2(CO)CC(Cc3ccccc3)C2)n1 (configuration not stated) = > 31.6 µM
CN(CCNC(=O)c1cc(-c2ccccc2)nc2ccccc12)CCNC(=O)c1cc(-c2ccccc2)nc2ccccc12 = > 100 µM
